Consider the following binders; for each one, report its Mean % WT Binding.
# subject.of.test: human CD33 L180A (human, UniProt P20138 18-364)
# Sequence (P20138 18-364 L180A limits assumed): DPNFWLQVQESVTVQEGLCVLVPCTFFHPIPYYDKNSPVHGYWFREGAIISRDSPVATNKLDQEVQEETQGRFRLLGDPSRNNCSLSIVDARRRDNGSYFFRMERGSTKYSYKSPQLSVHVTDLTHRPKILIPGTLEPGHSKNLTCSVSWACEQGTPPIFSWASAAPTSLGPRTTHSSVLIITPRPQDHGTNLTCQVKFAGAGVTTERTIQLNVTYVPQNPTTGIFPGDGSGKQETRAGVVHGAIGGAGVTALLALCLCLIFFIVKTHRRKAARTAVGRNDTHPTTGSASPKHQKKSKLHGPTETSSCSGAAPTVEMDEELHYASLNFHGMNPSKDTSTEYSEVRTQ
# assay.info: alanine scan, flow cytometry, HEK293-T;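 note: antibody binding to each alanine-substituted CD33 mutant expressed transiently in HEK293-T, read as fluorescence minus background, mean of duplicates, relative to wild-type CD33 set as 100%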
Give the value; after it, write the unit.

Solved entries:
binder | measured.result
Refmab #3 (antibody, V domains shown, In the alanine scan antibodies were used as IgG or Fab) VH: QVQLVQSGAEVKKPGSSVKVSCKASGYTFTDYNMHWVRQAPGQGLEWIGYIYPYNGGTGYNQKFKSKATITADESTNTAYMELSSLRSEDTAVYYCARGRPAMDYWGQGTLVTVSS VL: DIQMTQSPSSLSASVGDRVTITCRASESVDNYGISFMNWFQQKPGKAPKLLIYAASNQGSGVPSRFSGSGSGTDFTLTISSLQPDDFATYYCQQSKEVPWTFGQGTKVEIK | 102%
Refmab #1 (antibody, V domains shown, In the alanine scan antibodies were used as IgG or Fab; also called hP67.6) VH: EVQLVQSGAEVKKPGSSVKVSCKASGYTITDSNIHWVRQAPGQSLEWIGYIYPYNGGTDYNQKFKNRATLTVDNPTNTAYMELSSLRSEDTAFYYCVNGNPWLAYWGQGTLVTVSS VL: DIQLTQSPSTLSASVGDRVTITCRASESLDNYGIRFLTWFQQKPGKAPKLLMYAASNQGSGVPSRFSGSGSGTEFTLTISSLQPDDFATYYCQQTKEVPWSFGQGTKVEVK | 91.3%
Refmab #2 (antibody, V domains shown, In the alanine scan antibodies were used as IgG or Fab) VH: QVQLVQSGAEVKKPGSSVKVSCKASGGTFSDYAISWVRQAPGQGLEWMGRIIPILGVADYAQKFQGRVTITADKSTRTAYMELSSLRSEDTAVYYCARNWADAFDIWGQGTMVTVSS VL: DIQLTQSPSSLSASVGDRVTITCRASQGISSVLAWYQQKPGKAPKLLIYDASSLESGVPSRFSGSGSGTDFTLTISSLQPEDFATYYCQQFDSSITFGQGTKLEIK | 118%

// next item, Mean % WT Binding requested
Would you mind telling me what Mean % WT Binding value was observed for Refmab #4 (antibody, V domains shown, In the alanine scan antibodies were used as IgG or Fab) VH: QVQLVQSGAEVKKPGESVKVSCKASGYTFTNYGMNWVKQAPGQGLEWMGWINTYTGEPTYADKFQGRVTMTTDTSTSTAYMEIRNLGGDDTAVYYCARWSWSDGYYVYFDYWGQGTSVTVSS VL: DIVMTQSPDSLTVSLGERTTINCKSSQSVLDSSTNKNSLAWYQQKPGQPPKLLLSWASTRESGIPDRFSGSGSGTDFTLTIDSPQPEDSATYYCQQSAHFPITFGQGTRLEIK ?
101%
